Test system: 377384-186-R-J1-PDC complex spheroid viability;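 also: spheroids exposed to compounds for seven days before readout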
Procedure Summary: Anticancer human tumor 377384-186-R-J1-PDC patient-derived pancreatic carcinoma cell line growth inhibition [RAS]
Conditions Used: curve of first compound; second compound 0.00949 µM
Entries annotated with measured IC50

# annotated cases, reported IC50 shown
Entry C[C@@H](NC(=O)c1ncnc(N)c1Cl)c1ncc(C(=O)Nc2cc(C(F)(F)F)c(Cl)cn2)s1 + CCn1c(-c2cc(N3CCN(C)CC3)cnc2C(C)OC)c2c3cc(ccc31)-c1csc(n1)CC(NC(=O)C1CC1C)C(=O)N1CCCC(N1)C(=O)OCC(C)(C)C2 , system 377384-186-R-J1-PDC complex spheroid viability: what IC50 was measured?;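 also: spheroids exposed to compounds for seven days before readout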
< 0.0316 µM

Lookup NC1c2ccccc2OC12CCN(c1cnc3c(N4CCCc5ncccc54)n[nH]c3n1)CC2 (stereo not given) + CCn1c(-c2cccnc2C(C)OC)c2c3cc(ccc31)N1CCOC(CC(NC(=O)C(C(C)C)N(C)C(=O)C3(F)CCN(C(=O)C#CC(C)(C)N(C)C)CC3)C(=O)N3CCCC(N3)C(=O)OCC(C)(C)C2)C1
> 10 µM

Lookup CCc1c2c(nc3ccc(O)cc13)-c1cc3c(c(=O)n1C2)COC(=O)[C@]3(O)CC + CCn1c(-c2cc(N3CCN(C)CC3)cnc2C(C)OC)c2c3cc(ccc31)-c1csc(n1)CC(NC(=O)C1CC1C)C(=O)N1CCCC(N1)C(=O)OCC(C)(C)C2
< 0.000949 µM

Lookup CC1(O)CCCC1n1c(=O)c(C(F)F)cc2cnc(NC3CCN(S(C)(=O)=O)CC3)nc21 (stereo not given) + CCn1c(-c2cc(N3CCN(C)CC3)cnc2C(C)OC)c2c3cc(ccc31)-c1csc(n1)CC(NC(=O)C1CC1C)C(=O)N1CCCC(N1)C(=O)OCC(C)(C)C2
< 0.0316 µM

Lookup Cc1nc(N2CCC3(CC2)COC(C)C3N)c(CO)nc1Sc1ccnc(N)c1Cl (stereo not given) + CCn1c(-c2cc(N3CCN(C)CC3)cnc2C(C)OC)c2c3cc(ccc31)-c1csc(n1)CC(NC(=O)C1CC1C)C(=O)N1CCCC(N1)C(=O)OCC(C)(C)C2
< 0.0316 µM

Next:
Entry Nc1ccn(C2OC(CO)C(O)C2(F)F)c(=O)n1 (stereo not given) + CCn1c(-c2cc(N3CCN(C)CC3)cnc2C(C)OC)c2c3cc(ccc31)-c1csc(n1)CC(NC(=O)C1CC1C)C(=O)N1CCCC(N1)C(=O)OCC(C)(C)C2 , system 377384-186-R-J1-PDC complex spheroid viability: what IC50 was measured?;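 also: spheroids exposed to compounds for seven days before readout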
< 0.00316 µM

Lookup CC(Nc1ccc2c(c1)OCCn1cc(N3C(=O)OCC3C(F)F)nc1-2)C(N)=O (stereo not given) + CCn1c(-c2cc(N3CCN(C)CC3)cnc2C(C)OC)c2c3cc(ccc31)-c1csc(n1)CC(NC(=O)C1CC1C)C(=O)N1CCCC(N1)C(=O)OCC(C)(C)C2
< 0.0316 µM

Lookup O=C(c1ccc(F)c(F)c1Nc1ccc(I)cc1F)N1CC(O)([C@@H]2CCCCN2)C1 + CCn1c(-c2cccnc2C(C)OC)c2c3cc(ccc31)N1CCOC(CC(NC(=O)C(C(C)C)N(C)C(=O)C3(F)CCN(C(=O)C#CC(C)(C)N(C)C)CC3)C(=O)N3CCCC(N3)C(=O)OCC(C)(C)C2)C1
0.0286 µM

Lookup CC1(C)CCC(Nc2ncc(C(F)(F)F)c(-c3c[nH]c4c(P(C)(C)=O)c(C#N)ccc34)n2)CN1 (stereo not given) + CCn1c(-c2cc(N3CCN(C)CC3)cnc2C(C)OC)c2c3cc(ccc31)-c1csc(n1)CC(NC(=O)C1CC1C)C(=O)N1CCCC(N1)C(=O)OCC(C)(C)C2
< 0.000949 µM

Lookup CCC(CC)c1cc(NC2CCC(N)C2)n2nccc2n1 (stereo not given) + CCn1c(-c2cccnc2C(C)OC)c2c3cc(ccc31)N1CCOC(CC(NC(=O)C(C(C)C)N(C)C(=O)C3(F)CCN(C(=O)C#CC(C)(C)N(C)C)CC3)C(=O)N3CCCC(N3)C(=O)OCC(C)(C)C2)C1
1.6 µM

Lookup CC(=O)OC12COC1CC(O)C1(C)C(=O)C(O)C3=C(C)C(OC(=O)C(O)C(NC(=O)OC(C)(C)C)c4ccccc4)CC(O)(C(OC(=O)c4ccccc4)C21)C3(C)C (stereo not given) + CCn1c(-c2cccnc2C(C)OC)c2c3cc(ccc31)N1CCOC(CC(NC(=O)C(C(C)C)N(C)C(=O)C3(F)CCN(C(=O)C#CC(C)(C)N(C)C)CC3)C(=O)N3CCCC(N3)C(=O)OCC(C)(C)C2)C1
< 0.0316 µM

Lookup C=CC(=O)N1CCN(c2nc(OCC3CCCN3C)nc3c(F)c(-c4nc(N)cc(C)c4C(F)(F)F)c(Cl)cc23)C(C)C1 (stereo not given) + CCn1c(-c2cccnc2C(C)OC)c2c3cc(ccc31)N1CCOC(CC(NC(=O)C(C(C)C)N(C)C(=O)C3(F)CCN(C(=O)C#CC(C)(C)N(C)C)CC3)C(=O)N3CCCC(N3)C(=O)OCC(C)(C)C2)C1
> 1 µM

Lookup C=CC(=O)Nc1cc(Nc2nccc(-c3cn(C)c4ccccc34)n2)c(OC)cc1N(C)CCN(C)C + CCn1c(-c2cc(N3CCN(C)CC3)cnc2C(C)OC)c2c3cc(ccc31)-c1csc(n1)CC(NC(=O)C1CC1C)C(=O)N1CCCC(N1)C(=O)OCC(C)(C)C2
< 0.00316 µM

Lookup CC(Nc1ccc2c(c1)OCCn1cc(N3C(=O)OCC3C(F)F)nc1-2)C(N)=O (stereo not given) + CCn1c(-c2cccnc2C(C)OC)c2c3cc(ccc31)N1CCOC(CC(NC(=O)C(C(C)C)N(C)C(=O)C3(F)CCN(C(=O)C#CC(C)(C)N(C)C)CC3)C(=O)N3CCCC(N3)C(=O)OCC(C)(C)C2)C1
0.453 µM

Lookup Cc1nc(N2CCC3(CC2)COC(C)C3N)c(CO)nc1Sc1ccnc(N)c1Cl (stereo not given) + CCn1c(-c2cccnc2C(C)OC)c2c3cc(ccc31)N1CCOC(CC(NC(=O)C(C(C)C)N(C)C(=O)C3(F)CCN(C(=O)C#CC(C)(C)N(C)C)CC3)C(=O)N3CCCC(N3)C(=O)OCC(C)(C)C2)C1
> 10 µM
